Experiment: Probe fluorescence ratio response to linolenic acid relative to ADIFAB2
Format: binding
Conditions: response relative to ADIFAB2
Listed next: entries and their corresponding DR/DR LNA.
Just the number, please.

17H, 72A (protein, listed as Rattus norvegicus, PEPTIDE (1)...(131) wild-type rat intestinal fatty acid binding protein) AFDGTWKVDRNENYEKHMEKMGINVVKRKLGAHDNLKLTITQEGNKFTVKESSNFRNIDVVFELGVDFAYSAADGTELTGTWTMEGNKLVGKFKRVDNGKELIAVREISGNELIQTYTYEGVEAKRIFKKE	0.50

Could you now look at the following molecule, please?
Answer with the recorded DR/DR LNA of 38Q 106W 117A 72A (protein, listed as Rattus norvegicus, PEPTIDE (1)...(131) wild-type rat intestinal fatty acid binding protein) AFDGTWKVDRNENYEKFMEKMGINVVKRKLGAHDNLKQTITQEGNKFTVKESSNFRNIDVVFELGVDFAYSAADGTELTGTWTMEGNKLVGKFKRVDNGKELIAVWEISGNELIQTATYEGVEAKRIFKKE only.
0.795
